target-desc: MBP-FoxP1dN (Mus musculus, UniProt P58462 326-579)
Sequence: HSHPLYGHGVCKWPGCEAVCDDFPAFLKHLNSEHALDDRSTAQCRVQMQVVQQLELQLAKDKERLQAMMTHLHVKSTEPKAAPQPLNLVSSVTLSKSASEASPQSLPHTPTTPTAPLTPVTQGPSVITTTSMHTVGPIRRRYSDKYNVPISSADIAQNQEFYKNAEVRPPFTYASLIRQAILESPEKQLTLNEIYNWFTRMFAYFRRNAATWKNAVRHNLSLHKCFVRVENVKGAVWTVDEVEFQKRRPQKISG
test: PD-seq (MBP pull-down with sequencing); 20 mM Tris-HCl pH 7.5, 100 mM NaCl, 1.5 mM MgCl2, 0.4 uM protein, 0.1 uM dsDNA library, 30 min, room temperature, amylose pull-down; high values mean tight binding
particulars: protein: recombinant; tags: His6-MBP; chain copies: 2; dsDNA, one strand shown
In all, about 16,000 sequences were measured (“rpm ratio (pull-down/input)”: median about 0.94, highest 2% from about 1.7 on). Only a selection was taken, and the highest values are over-represented in it overall.
test-readout: binding signal

// below: answered sequences
GATGATTGTTCTCCCAGCTGATGAATTTCAGCTGTCGAGTAAACAAATTTTCCTAATCTTTCTGTTCAAGCGCCATCTAC = 0.889 RPM ratio (pull-down/input)
GATGATTGTTCTCCCAGCTGATGAATTCATGTTGTCGAGTAAACAAATTTTCCTAATCTTTCTGTTCAAGCGCCATCTAC = 2.26 RPM ratio (pull-down/input)
GATGATTGTTCTCCCAGCTGATGAATTGTTGATGTCGAGTAAACAAATTTTCCTAATCTTTCTGTTCAAGCGCCATCTAC = 2.27 RPM ratio (pull-down/input)
GATGATTGTTCTCCCAGCTGATGAATTGGATGCGTCGAGTAAACAAATTTTCCTAATCTTTCTGTTCAAGCGCCATCTAC = 1.29 RPM ratio (pull-down/input)
GATGATTGTTCTCCCAGCTGATGAATTGTTGTGATCGAGTAAACAAATTTTCCTAATCTTTCTGTTCAAGCGCCATCTAC = 2.32 RPM ratio (pull-down/input)

Item under review: `GATGATTGTTCTCCCAGCTGATGAATTCTTCATGTCGAGTAAACAAATTTTCCTAATCTTTCTGTTCAAGCGCCATCTAC` . Reported binding signal?
0.907 RPM ratio (pull-down/input)

// binding signal lookup, key: `GATGATTGTTCTCCCAGCTGATGAATTCTATTGATCGAGTAAACAAATTTTCCTAATCTTTCTGTTCAAGCGCCATCTAC`
2.09 RPM ratio (pull-down/input)

----------
target-desc: MBP-FoxP1dN (Mus musculus, UniProt P58462 326-579)
Sequence: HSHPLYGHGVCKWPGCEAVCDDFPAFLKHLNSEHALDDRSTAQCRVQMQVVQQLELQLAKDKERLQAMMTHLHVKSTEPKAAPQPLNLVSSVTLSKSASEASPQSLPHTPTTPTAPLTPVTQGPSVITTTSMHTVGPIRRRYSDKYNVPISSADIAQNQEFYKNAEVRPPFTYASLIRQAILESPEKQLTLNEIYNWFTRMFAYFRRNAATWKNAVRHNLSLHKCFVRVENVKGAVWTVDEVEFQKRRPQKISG
test: PD-seq (MBP pull-down with sequencing); 20 mM Tris-HCl pH 7.5, 100 mM NaCl, 1.5 mM MgCl2, 0.4 uM protein, 0.1 uM dsDNA library, 30 min, room temperature, amylose pull-down; high values mean tight binding
particulars: protein: recombinant; tags: His6-MBP; chain copies: 2; dsDNA, one strand shown
Over roughly 16,000 sequences, “rpm ratio (pull-down/input)” has its median near 0.94; the highest 2% begin near 1.7. The list comes from a sample in which the highest values are over-represented; it also holds close analogues and randomly drawn sequences.
binding signal values by entry

Known results for sequences:
GATGATTGTTCTCCCAGCTGATGAATTGTTTAGATCGAGTAAACAAATTTTCCTAATCTTTCTGTTCAAGCGCCATCTAC = 2.19 RPM ratio (pull-down/input)
GATGATTGTTCTCCCAGCTGATGAATTTACTGTTTCGAGTAAACAAATTTTCCTAATCTTTCTGTTCAAGCGCCATCTAC = 1.35 RPM ratio (pull-down/input)
GATGATTGTTCTCCCAGCTGATGAATTCCTAGGTTCGAGTAAACAAATTTTCCTAATCTTTCTGTTCAAGCGCCATCTAC = 0.762 RPM ratio (pull-down/input)
GATGATTGTTCTCCCAGCTGATGAATTTATTCTATCGAGTAAACAAATTTTCCTAATCTTTCTGTTCAAGCGCCATCTAC = 1.16 RPM ratio (pull-down/input)
GATGATTGTTCTCCCAGCTGATGAATTTTACGTATCGAGTAAACAAATTTTCCTAATCTTTCTGTTCAAGCGCCATCTAC = 0.962 RPM ratio (pull-down/input)

Any idea what its binding signal is? The sequence is `GATGATTGTTCTCCCAGCTGATGAATTTTTTACATCGAGTAAACAAATTTTCCTAATCTTTCTGTTCAAGCGCCATCTAC`
0.953 RPM ratio (pull-down/input)

State the recorded binding signal for this entry: `GATGATTGTTCTCCCAGCTGATGAATTTAGATGATCGAGTAAACAAATTTTCCTAATCTTTCTGTTCAAGCGCCATCTAC`
1.11 RPM ratio (pull-down/input)

Which binding signal reading was recorded for the sequence `GATGATTGTTCTCCCAGCTGATGAATTGCATTTATCGAGTAAACAAATTTTCCTAATCTTTCTGTTCAAGCGCCATCTAC` ?
1.77 RPM ratio (pull-down/input)

----------
target-desc: MBP-FoxP1dN (Mus musculus, UniProt P58462 326-579)
Sequence: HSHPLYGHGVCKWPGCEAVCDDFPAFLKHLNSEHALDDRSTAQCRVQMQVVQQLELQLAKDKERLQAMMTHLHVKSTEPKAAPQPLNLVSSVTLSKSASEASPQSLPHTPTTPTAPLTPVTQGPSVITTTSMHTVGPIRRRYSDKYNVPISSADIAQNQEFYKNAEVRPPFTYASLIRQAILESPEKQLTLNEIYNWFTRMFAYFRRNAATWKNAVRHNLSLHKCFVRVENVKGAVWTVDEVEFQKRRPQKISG
test: PD-seq (MBP pull-down with sequencing); 20 mM Tris-HCl pH 7.5, 100 mM NaCl, 1.5 mM MgCl2, 0.4 uM protein, 0.1 uM dsDNA library, 30 min, room temperature, amylose pull-down; high values mean tight binding
particulars: protein: recombinant; tags: His6-MBP; chain copies: 2; dsDNA, one strand shown
Over roughly 16,000 sequences, “rpm ratio (pull-down/input)” has its median near 0.94; the highest 2% begin near 1.7. Shown is part of a subset that was picked to be rich in the highest values.
Catalogue of sequences with associated binding signal

Worked examples follow.
GATGATTGTTCTCCCAGCTGATGAATTGTATATTTCGAGTAAACAAATTTTCCTAATCTTTCTGTTCAAGCGCCATCTAC = 1.52 RPM ratio (pull-down/input)
GATGATTGTTCTCCCAGCTGATGAATTTTGAGAATCGAGTAAACAAATTTTCCTAATCTTTCTGTTCAAGCGCCATCTAC = 0.914 RPM ratio (pull-down/input)

Field: binding signal (MBP-FoxP1dN (Mus musculus, UniProt P58462 326-579)). Entry: `GATGATTGTTCTCCCAGCTGATGAATTTTACTGGTCGAGTAAACAAATTTTCCTAATCTTTCTGTTCAAGCGCCATCTAC`
0.796 RPM ratio (pull-down/input)

Look up binding signal with MBP-FoxP1dN (Mus musculus, UniProt P58462 326-579) for this sequence: `GATGATTGTTCTCCCAGCTGATGAATTGTATCTTTCGAGTAAACAAATTTTCCTAATCTTTCTGTTCAAGCGCCATCTAC`
1.31 RPM ratio (pull-down/input)

Lab request: please report binding signal under test system MBP-FoxP1dN (Mus musculus, UniProt P58462 326-579) for `GATGATTGTTCTCCCAGCTGATGAATTAAAGGTTTCGAGTAAACAAATTTTCCTAATCTTTCTGTTCAAGCGCCATCTAC`
0.867 RPM ratio (pull-down/input)

State its binding signal on MBP-FoxP1dN (Mus musculus, UniProt P58462 326-579): `GATGATTGTTCTCCCAGCTGATGAATTGACGCTTTCGAGTAAACAAATTTTCCTAATCTTTCTGTTCAAGCGCCATCTAC`
1.33 RPM ratio (pull-down/input)

I'm curious: which binding signal was measured for `GATGATTGTTCTCCCAGCTGATGAATTGTTTAGTTCGAGTAAACAAATTTTCCTAATCTTTCTGTTCAAGCGCCATCTAC` tested on MBP-FoxP1dN (Mus musculus, UniProt P58462 326-579)?
1.94 RPM ratio (pull-down/input)

Find the measured binding signal: item `GATGATTGTTCTCCCAGCTGATGAATTGTATTTTTCGAGTAAACAAATTTTCCTAATCTTTCTGTTCAAGCGCCATCTAC` , target or system MBP-FoxP1dN (Mus musculus, UniProt P58462 326-579).
1.8 RPM ratio (pull-down/input)

Tell me reported binding signal for `GATGATTGTTCTCCCAGCTGATGAATTCGGCTCCTCGAGTAAACAAATTTTCCTAATCTTTCTGTTCAAGCGCCATCTAC` , tested with MBP-FoxP1dN (Mus musculus, UniProt P58462 326-579).
0.747 RPM ratio (pull-down/input)

Every entry's value here was drawn from paper PMC12820563.
